Target: Human immunodeficiency virus type 1 reverse transcriptase (Human immunodeficiency virus 1)
Assay: Cytotoxic concentration which reduces the cell viability of HIV-1 LAI infected T4 lymphoblastoid CEM-SS cells by 50%
Type: functional, cell-based
Measurement label: CC50

Provide CC50 for all items below, preserving their order.
1. Cc1cn(C2CC(N=[N+]=[N-])C(CO)O2)c(=O)n(CCC(=O)NCCCCCCCCCCN)c1=O (stereo not drawn)
2. CCc1c(C)nc(O)c(NC(=O)CCCCCCCCC(=O)O)c1Cc1cc(C)cc(C)c1
3. CCc1c(C)nc(O)c(N)c1Cc1cc(C)cc(C)c1
4. CCc1c(Sc2cc(C)cc(C)c2)n(CCCCC(=O)OC)c(=O)[nH]c1=O
5. CCc1c(C)nc(O)c(NC(=O)CCCC(=O)OC)c1Cc1cc(C)cc(C)c1

60 µM
> 10 µM
> 10 µM
> 33 µM
> 100 µM

Provide CC50 for all items below, preserving their order.
1. CCc1c(Sc2cc(C)cc(C)c2)n(CCCCC(=O)NCCCCNC(=O)CCc2cn(C3CC(N=[N+]=[N-])C(CO)O3)c(=O)[nH]c2=O)c(=O)[nH]c1=O (stereo not drawn)
2. CCc1c(Sc2cc(C)cc(C)c2)n(CCCCC(=O)NCCCCCCCCCCCCNc2ccn(C3CCC(CO)O3)c(=O)n2)c(=O)[nH]c1=O (stereo not drawn)
3. CCc1c(C)nc(O)c(NC(=O)CNC(=O)CN)c1Cc1cc(C)cc(C)c1

["> 55 µM", "> 25 µM", "> 100 µM"]

All figures here come from ChEMBL document CHEMBL1133178.
